Data origin, for the record: patent US7074789B2

Target: c-Met (Homo sapiens)
Construct: Kinases are expressed as either kinase domains or full length constructs; made in house
Sequence (P08581 25-1390): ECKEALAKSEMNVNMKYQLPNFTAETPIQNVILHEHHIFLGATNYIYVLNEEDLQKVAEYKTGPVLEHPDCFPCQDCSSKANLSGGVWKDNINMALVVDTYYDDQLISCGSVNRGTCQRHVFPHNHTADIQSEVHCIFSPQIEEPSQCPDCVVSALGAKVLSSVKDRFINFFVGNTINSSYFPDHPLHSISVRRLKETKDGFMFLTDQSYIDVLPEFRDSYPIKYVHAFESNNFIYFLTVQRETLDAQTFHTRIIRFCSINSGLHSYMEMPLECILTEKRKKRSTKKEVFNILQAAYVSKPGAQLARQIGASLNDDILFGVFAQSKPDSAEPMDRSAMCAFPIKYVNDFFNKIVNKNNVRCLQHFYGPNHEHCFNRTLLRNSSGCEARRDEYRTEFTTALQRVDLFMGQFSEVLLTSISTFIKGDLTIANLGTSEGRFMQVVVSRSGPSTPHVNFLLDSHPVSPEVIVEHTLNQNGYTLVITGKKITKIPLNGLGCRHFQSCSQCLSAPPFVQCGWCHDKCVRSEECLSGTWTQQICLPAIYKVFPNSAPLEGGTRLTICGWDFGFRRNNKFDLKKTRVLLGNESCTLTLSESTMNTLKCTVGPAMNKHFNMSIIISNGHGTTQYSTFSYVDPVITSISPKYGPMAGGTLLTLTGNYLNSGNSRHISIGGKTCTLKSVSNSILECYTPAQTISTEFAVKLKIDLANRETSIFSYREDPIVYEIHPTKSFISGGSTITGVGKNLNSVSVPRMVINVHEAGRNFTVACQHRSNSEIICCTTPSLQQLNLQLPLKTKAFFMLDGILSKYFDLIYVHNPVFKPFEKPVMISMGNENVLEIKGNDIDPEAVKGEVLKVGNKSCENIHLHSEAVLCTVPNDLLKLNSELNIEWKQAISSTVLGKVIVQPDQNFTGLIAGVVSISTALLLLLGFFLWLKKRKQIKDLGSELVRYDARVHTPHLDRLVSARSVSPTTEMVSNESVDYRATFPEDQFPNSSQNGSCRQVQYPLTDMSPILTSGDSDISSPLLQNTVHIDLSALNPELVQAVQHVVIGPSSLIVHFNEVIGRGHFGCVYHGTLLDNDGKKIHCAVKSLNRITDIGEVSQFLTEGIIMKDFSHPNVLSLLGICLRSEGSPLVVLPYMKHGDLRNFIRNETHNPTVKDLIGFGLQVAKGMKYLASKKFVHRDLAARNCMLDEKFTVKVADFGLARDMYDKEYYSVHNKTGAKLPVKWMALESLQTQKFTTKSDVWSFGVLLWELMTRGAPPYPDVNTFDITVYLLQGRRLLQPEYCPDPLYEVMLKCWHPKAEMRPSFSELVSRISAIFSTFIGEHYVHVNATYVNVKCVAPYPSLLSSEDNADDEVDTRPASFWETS
Test: Kinase inhibition assay (33P transfer), c-Met
Type: biochemical
Conditions: Table 2, kinase inhibition class; read-out: Met-1
pIC50: −log10 of the molar value.
measure_name: pIC50

Previously resolved entries follow.
# smiles_notation, pIC50
measured = [
    ("COc1cc(Nc2ncnc(-c3cccnc3NC(C)C)n2)cc(OC)c1OC", "< 4.94"),
    ("Cc1ccc2c(c1)CCCN2c1ncnc(NCc2cccnc2)n1", "< 4.87"),
    ("COc1cc(Nc2ncnc(-c3cccnc3Cl)n2)cc(OC)c1OCCN1CCOCC1", "< 5.02"),
    ("COc1cc(Nc2ncnc(Nc3ccc(C(C)C)cc3)n2)cc(OC)c1OC", "5.22 to 6.00"),
    ("COc1cc(Nc2ncnc(N(C)c3ccc(F)c(Cl)c3)n2)cc(OC)c1OC", "5.24 to 6.02"),
]

Could you report pIC50 for every entry in the following list?
1. COc1cc(Nc2ncnc(N[C@@H](CO)c3ccccc3)n2)cc(OC)c1OC
2. COc1cc(Nc2ncnc(Nc3ccc(N(C)C)cc3)n2)cc(OC)c1OC
3. COc1ccc(Nc2ncnc(NCCC#N)n2)cc1OC
4. COc1cc(Nc2ncnc(N(c3ccccc3)c3nc4ccccc4[nH]3)n2)cc(OC)c1OC

Reply:
1. < 4.95
2. 4.94 to 5.05
3. < 4.82
4. < 5.02

====

Molecular target: Itk (Homo sapiens, UniProt Q08881)
Construct: Kinases are expressed as either kinase domains or full length constructs; made in house
Sequence (Q08881 whole entry, species assumed, the tested form may be a part): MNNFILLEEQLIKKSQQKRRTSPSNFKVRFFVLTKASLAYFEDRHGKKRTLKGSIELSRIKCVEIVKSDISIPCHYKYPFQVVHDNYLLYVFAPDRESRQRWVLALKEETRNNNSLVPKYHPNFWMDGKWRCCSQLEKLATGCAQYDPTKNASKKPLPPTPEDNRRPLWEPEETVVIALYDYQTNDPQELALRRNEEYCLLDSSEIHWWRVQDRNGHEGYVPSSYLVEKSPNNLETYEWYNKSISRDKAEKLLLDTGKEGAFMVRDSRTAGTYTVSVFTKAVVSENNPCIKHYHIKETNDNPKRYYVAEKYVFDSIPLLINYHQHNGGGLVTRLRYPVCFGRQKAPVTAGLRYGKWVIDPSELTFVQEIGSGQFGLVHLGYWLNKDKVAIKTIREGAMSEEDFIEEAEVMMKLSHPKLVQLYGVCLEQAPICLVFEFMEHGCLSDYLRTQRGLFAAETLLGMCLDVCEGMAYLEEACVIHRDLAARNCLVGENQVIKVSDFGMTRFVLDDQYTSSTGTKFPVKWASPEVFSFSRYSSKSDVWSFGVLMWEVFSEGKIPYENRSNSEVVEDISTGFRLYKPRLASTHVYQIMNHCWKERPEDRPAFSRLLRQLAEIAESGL
Assay: Kinase inhibition assay (33P transfer), Itk
Type: biochemical
Conditions: read-out: Itk-1
pIC50: −log10 of the molar value.
measure_name: pIC50

Solved cases below.
# smiles_notation, pIC50
rows = [
    ("CN(c1cccc(Cl)c1)c1ncnc(-n2c(N)nc3ccccc32)n1", "5.00 to 5.17"),
    ("COC(=O)n1c(=O)n(-c2ncnc(Nc3cc(OC)c(OC)c(OC)c3)n2)c2ccccc21", "< 5.00"),
    ("N#CCc1ccc(Nc2ncnc(Nc3ccc4c(cnn4Cc4ccccc4)c3)n2)cc1", "5.26 to 6.03"),
]

Shifting focus to the compound that follows.
Ask: Fill blank: measured pIC50 of the compound `COc1ccc(Nc2ncnc(-n3c(N)nc4ccccc43)n2)cc1` is ____.
Reply: 4.98 to 5.14

====

Target: Kdr (Homo sapiens)
Construct: Kinases are expressed as either kinase domains or full length constructs; made in house
Sequence (P35968 20-1356, species assumed): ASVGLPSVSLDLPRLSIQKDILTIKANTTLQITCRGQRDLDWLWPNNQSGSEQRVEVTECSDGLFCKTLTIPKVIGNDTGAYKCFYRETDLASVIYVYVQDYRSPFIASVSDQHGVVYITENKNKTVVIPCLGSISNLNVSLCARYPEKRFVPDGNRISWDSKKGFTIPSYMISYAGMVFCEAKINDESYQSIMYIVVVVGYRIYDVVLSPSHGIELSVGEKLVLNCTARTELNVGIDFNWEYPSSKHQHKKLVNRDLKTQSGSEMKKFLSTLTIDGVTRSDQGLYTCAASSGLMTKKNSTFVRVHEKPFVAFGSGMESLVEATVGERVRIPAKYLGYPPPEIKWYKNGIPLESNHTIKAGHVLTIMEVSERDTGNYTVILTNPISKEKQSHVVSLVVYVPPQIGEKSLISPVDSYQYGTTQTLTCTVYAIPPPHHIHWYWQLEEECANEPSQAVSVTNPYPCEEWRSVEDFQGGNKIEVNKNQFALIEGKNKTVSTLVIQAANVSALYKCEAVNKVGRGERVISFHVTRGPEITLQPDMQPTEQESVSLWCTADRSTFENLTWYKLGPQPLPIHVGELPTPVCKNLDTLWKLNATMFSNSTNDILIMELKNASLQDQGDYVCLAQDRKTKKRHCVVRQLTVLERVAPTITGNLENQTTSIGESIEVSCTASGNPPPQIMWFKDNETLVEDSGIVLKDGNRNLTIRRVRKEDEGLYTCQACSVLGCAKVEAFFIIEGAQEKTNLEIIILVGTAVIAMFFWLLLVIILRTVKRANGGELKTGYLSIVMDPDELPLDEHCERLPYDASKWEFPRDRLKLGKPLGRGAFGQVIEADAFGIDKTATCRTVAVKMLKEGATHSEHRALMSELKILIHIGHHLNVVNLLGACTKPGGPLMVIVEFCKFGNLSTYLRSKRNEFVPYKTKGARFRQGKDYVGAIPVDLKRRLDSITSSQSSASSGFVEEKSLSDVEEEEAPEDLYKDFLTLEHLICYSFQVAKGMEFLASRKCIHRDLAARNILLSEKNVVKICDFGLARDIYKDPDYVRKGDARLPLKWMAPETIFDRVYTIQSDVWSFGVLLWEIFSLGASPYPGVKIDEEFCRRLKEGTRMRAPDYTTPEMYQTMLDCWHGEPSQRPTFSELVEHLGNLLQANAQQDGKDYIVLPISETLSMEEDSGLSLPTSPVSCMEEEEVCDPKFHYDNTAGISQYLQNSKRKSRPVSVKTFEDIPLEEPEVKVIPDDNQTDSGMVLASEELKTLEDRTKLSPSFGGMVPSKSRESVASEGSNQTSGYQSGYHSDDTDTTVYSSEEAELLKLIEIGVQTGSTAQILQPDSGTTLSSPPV
Assay: Kinase inhibition assay (33P transfer), Kdr
Type: biochemical
Settings: read-out: KDR-1
Excerpt: The inhibitor compounds described herein are screened in the following manner. […] Kinases are expressed as either kinase domains or full length constructs fused to glutathione S-transferase (GST) or polyHistidine tagged fusion proteins in either E. colior Baculovirus-High Five expression systems. […]
pIC50: −log10 of the molar value.
Give measured pIC50 for each item. Keep answers brief.

Reference set (3 entries):
# compound, pIC50
records = [
    ("CCOC(=O)N1CCC(Nc2ncnc(N3CCCc4cc(C)ccc43)n2)CC1 [Compound 765]", "< 4.95"),
    ("COC(=O)Cc1cccc(Nc2ncnc(-n3c(NCc4ccccc4)nc4ccccc43)n2)c1 [Compound 545]", "> 6.07"),
    ("COc1cc(Nc2ncnc(-n3c(NCCc4ccccc4)nc4ccccc43)n2)cc(OC)c1OC [Compound 509]", "> 6.09"),
]

Hi! Can you tell me pIC50 for each of these compounds?
1. O=c1[nH]c2ccccc2n1-c1ncnc(Nc2ncccn2)n1 [Compound 490]
2. CCc1ccc(Nc2nc3ccccc3n2-c2ncnc(Nc3cc(OC)c(OC)c(OC)c3)n2)cc1 [Compound 1048]
3. Cc1ccc2c(c1)CCCN2c1ncnc(NCc2ccccn2)n1 [Compound 769]
4. Nc1nc2ccccc2n1-c1ncnc(N2C(=O)c3ccccc3C2=O)n1 [Compound 653]
5. CCc1cccc(Nc2ncnc(-n3c(N)nc4ccccc43)n2)c1 [Compound 655]
6. COc1cc(Nc2ncnc(N(C)c3ccc(Cl)cc3)n2)cc(OC)c1OC [Compound 616]
7. O=c1[nH]c2ccccc2n1-c1ncnc(Nc2ccccc2[N+](=O)[O-])n1 [Compound 493]
8. COc1cc(Nc2ncnc(Nc3ccc4nn(C)cc4c3)n2)cc(OC)c1OC [Compound 556]

Reply:
1. < 4.83
2. > 6.09
3. < 4.87
4. < 4.90
5. > 5.92
6. > 6.00
7. < 4.89
8. 5.23 to 6.01

Could I get pIC50 for every one of these entries?
1. Nc1nc2ccccc2n1-c1ncnc(Nc2ccc(Cl)c(Cl)c2)n1 [Compound 528]
2. COc1cc(Nc2ncnc(-n3c(NCc4ncc[nH]4)nc4ccccc43)n2)cc(OC)c1OC [Compound 583]
3. COc1cc(Nc2ncnc(Nc3ccc4nn(Cc5ccccc5)cc4c3)n2)cc(OC)c1OC [Compound 555]
4. Clc1cccc(Nc2ncnc(Nc3cc(-c4ccccc4)n[nH]3)n2)c1 [Compound 1009]
5. O=C(O)Cc1cccc(Nc2ncnc(Nc3cc(-c4ccccc4)n[nH]3)n2)c1 [Compound 981]
6. CN(c1cccc(Cl)c1)c1ncnc(Nc2ccc(S(C)(=O)=O)cc2)n1 [Compound 749]
7. Fc1ccc(Nc2ncnc(Nc3ccc4[nH]ncc4c3)n2)cc1Cl [Compound 717]

Reply:
5.19 to 5.97
5.13 to 5.30
5.30 to 6.08
< 4.91
> 5.99
5.05 to 5.21
5.17 to 5.95

====

Endpoint: IC50. System: Src (Homo sapiens, UniProt P12931). Items follow.
Sequence (P12931 whole entry, species assumed): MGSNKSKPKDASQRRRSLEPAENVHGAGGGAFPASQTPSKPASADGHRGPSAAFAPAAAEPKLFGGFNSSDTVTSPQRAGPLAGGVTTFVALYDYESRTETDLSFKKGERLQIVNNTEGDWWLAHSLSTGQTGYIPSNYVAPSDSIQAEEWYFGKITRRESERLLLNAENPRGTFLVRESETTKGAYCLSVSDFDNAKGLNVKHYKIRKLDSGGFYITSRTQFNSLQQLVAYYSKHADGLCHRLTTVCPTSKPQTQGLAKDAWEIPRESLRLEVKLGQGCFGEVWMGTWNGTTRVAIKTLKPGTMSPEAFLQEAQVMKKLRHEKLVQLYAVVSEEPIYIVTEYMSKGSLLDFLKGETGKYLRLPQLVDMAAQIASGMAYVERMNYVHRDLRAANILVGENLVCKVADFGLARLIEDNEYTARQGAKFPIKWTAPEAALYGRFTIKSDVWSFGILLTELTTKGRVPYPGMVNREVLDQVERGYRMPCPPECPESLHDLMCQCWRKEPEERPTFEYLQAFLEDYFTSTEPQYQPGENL

# compound, assay_target, experimental_result
measured = [
    ("COCCOc1ccc(Nc2ncnc(-n3c(N)nc4ccccc43)n2)cc1OCCOC [Compound 302]", "Src (Homo sapiens, UniProt P12931)", "> 9.97 µM"),
    ("CCOC(=O)C(Nc1nc2ccccc2n1-c1ncnc(Nc2cc(OC)c(OC)c(OC)c2)n1)c1ccccc1 (stereo not drawn) [Compound 585]", "Src (Homo sapiens, UniProt P12931)", "> 8.1 µM"),
    ("COc1cc(Nc2ncnc(Nc3cccc(C)c3)n2)cc(OC)c1OC [Compound 64]", "Src (Homo sapiens, UniProt P12931)", "< 1.09 µM"),
    ("COc1cc(Nc2ncnc(Nc3ccc4cn[nH]c4c3)n2)cc(OC)c1OC [Compound 70]", "Src (Homo sapiens, UniProt P12931)", "< 1.02 µM"),
    ("CC(=O)NCc1ccc(Nc2ncnc(Nc3cc(-c4ccco4)n[nH]3)n2)cc1 [Compound 443]", "Src (Homo sapiens, UniProt P12931)", "6.15 to 8.97 µM"),
]

Kindly give each listed record's IC50.
1. COc1ccc(Nc2ncnc(Nc3ccc(C)c(O)c3)n2)cc1OC [Compound 119]
2. COc1cc(Nc2ncnc(N3CCCC4CCCCC43)n2)cc(OC)c1OC (stereo not drawn) [Compound 314]
3. COc1cc(Nc2ncnc(-n3c(N)nc4cc(Cl)ccc43)n2)cc(OC)c1OC [Compound 296]
4. COc1cc(Nc2ncnc(Nc3cc(F)ccc3F)n2)cc(OC)c1OC [Compound 316]

Reply:
1: 1.13 to 6.79 µM; 2: 1 to 6.01 µM; 3: 0.935 to 5.61 µM; 4: 8.99 to 11.6 µM

====

Provide the recorded IC50 for the entries that follow.
Biological target: c-Met (Homo sapiens)
Construct: Kinases are expressed as either kinase domains or full length constructs; made in house
Assay: Kinase inhibition assay (33P transfer), c-Met
Format: biochemical
Conditions: Table 2, kinase inhibition class; read-out: Met-1

Guide cases for IC50, answers given:
# smiles_notation, IC50
measured = [
    ("Cc1ccc2c(c1)CCCN2c1ncnc(Nc2cccc(-c3cnco3)c2)n1", "< 1.04 µM"),
    ("COc1cc(Nc2ncnc(-c3ccc(NCc4ccccc4)nc3)n2)cc(OC)c1OC", "> 10.1 µM"),
    ("COc1cc(Nc2ncnc(Nc3ccc(NC(=O)O[C@@H]4CCOC4)cc3)n2)cc(OC)c1OC", "0.829 to 4.97 µM"),
    ("COCCOc1ccc(Nc2ncnc(-n3c(N)nc4ccccc43)n2)cc1OC", "> 11 µM"),
    ("COc1cc(Nc2ncnc(NC(=O)NCCc3ccccc3)n2)cc(OC)c1OC", "> 10.6 µM"),
]

Batch: IC50 for all items listed.
1. Cc1cccc(Nc2ncnc(Nc3ccc4[nH]ncc4c3)n2)c1
2. COc1cc(Nc2ncnc(Nc3cccc4ccccc34)n2)cc(OC)c1OCCN1CCOCC1
3. COc1cc(Nc2ncnc(-c3ccc(N4CCNCC4)nc3)n2)cc(OC)c1OC
4. N#Cc1ccc(Nc2ncnc(-n3c(=O)[nH]c4ccccc43)n2)cc1

Reply:
7.56 to 11 µM
> 8.95 µM
> 10.6 µM
> 13.7 µM
